Hello, the source for this data is ChEMBL document CHEMBL1142343, in case you need it.

- System: Streptococcus pneumoniae
- Assay procedure: Antibacterial activity against Streptococcus pneumoniae by microdilution broth method
- Type: functional
Measured parameter: log10 of MIC (log10 of the value in µg/mL)
Record value = log10 of MIC given in µg/mL.

The cases that follow already have their log10 of MIC on record.
O=C(Nc1ccc(S(=O)(=O)c2ccccc2)cc1)C1=C(O)CC(Cc2ccccc2)NC1=O (stereo not given) | 1.20
O=C1NCC(Cc2ccccc2)C(O)=C1C(=O)Nc1ccc(-n2ccnc2)cc1 (stereo not given) | 1.51
O=C(Nc1ccc(C2CCCCC2)cc1)C1=C(O)C(CCc2ccccc2)NC1=O (stereo not given) | 0.00
O=C(Nc1ccc(N2CCCCC2)cc1)C1=C(O)CC(Cc2ccccc2)NC1=O (stereo not given) | 1.81
CC(C)CC1CC(O)=C(C(=O)Nc2ccc(C3CCCCC3)cc2)C(=O)N1 (stereo not given) | 0.60
O=C(Nc1ccc(C2CCCCC2)cc1)C1=C(O)C[C@@H](c2ccccc2)NC1=O | 0.60
O=C(Nc1ccc(C2CCCCC2)cc1)C1=C(O)C(Cc2ccccc2)NC1=O (stereo not given) | 0.00
O=C(Nc1ccc(-c2ccccc2)cc1)C1=C(O)C(CCc2ccccc2)NC1=O (stereo not given) | 0.30

query: Please give the measured log10 of MIC for this compound: CC(C)CC1NC(=O)C(C(=O)Nc2ccc(C3CCCCC3)cc2)=C1O (stereo not given)
result: 0.00

query: Item under review: O=C(Nc1ccc(F)cc1)C1=C(O)C(CCc2ccccc2)NC1=O (stereo not given) . Reported log10 of MIC?
result: 1.20

###

- Test target: Isoprenyl transferase (Streptococcus pneumoniae serotype 4 (strain ATCC BAA-334 / TIGR4))
- Assay procedure: Inhibition of Streptococcus pneumoniae UPPS
Measured parameter: pIC50
// pIC50 here means minus log10 of the molar concentration (mol/L)

O=C(Nc1ccc(C2CCCCC2)cc1)C1=C(O)CC(c2ccccc2)NC1=O (stereo not given) | 6.70
O=C(Nc1ccc(-c2ccccc2)cc1)C1=C(O)C(Cc2ccccc2)OC1=O (stereo not given) | 5.96
O=C(Nc1ccc(C2CCCCC2)cc1)C1=C(O)C[C@H](c2ccccc2)NC1=O | 6.74

Moving on to the next compound.
query: What does the data say about its pIC50? Entry: O=C(Nc1ccc(C(F)(F)F)nc1)C1=C(O)CC(Cc2ccccc2)NC1=O (stereo not given)
result: 6.85

###

Overview of reported pKa across a group of molecules:
- Assay procedure: Dissociation constant, pKa of the compound
- Assay type: physicochemical
Form rule: numeric answer, no unit written next to it.

O=C(Nc1ccc(C2CCCCC2)cc1)C1=C(O)CC(c2ccccc2)NC1=O (stereo unspecified) | 6.5
O=C(Nc1ccc(Oc2ccccc2)cc1)C1=C(O)CC(Cc2ccccc2)NC1=O (stereo unspecified) | 6.5
O=C(Nc1ccc(-n2ccnc2)cc1)C1=C(O)CC(Cc2ccccc2)NC1=O (stereo unspecified) | 6.5

query: Data request, read-out pKa, for O=C(Nc1ccc(C2CCCCC2)cc1)C1=C(O)C(Cc2ncc[nH]2)NC1=O (stereo unspecified)
result: 3

query: If you can, please state the reported pKa value of O=C(Nc1ccc(C(F)(F)F)nc1)C1=C(O)CC(Cc2ccccc2)NC1=O (stereo unspecified) .
result: 6.5

query: Recorded pKa for O=C(Nc1ccc(S(=O)(=O)c2ccccc2)cc1)C1=C(O)CC(Cc2ccccc2)NC1=O (stereo unspecified) , please?
result: 6.5

query: I'd like to know its pKa. The molecule in question is CC(C)CC1NC(=O)C(C(=O)Nc2ccc(C3CCCCC3)cc2)=C1O (stereo unspecified)
result: 3

###

Sequence of the target: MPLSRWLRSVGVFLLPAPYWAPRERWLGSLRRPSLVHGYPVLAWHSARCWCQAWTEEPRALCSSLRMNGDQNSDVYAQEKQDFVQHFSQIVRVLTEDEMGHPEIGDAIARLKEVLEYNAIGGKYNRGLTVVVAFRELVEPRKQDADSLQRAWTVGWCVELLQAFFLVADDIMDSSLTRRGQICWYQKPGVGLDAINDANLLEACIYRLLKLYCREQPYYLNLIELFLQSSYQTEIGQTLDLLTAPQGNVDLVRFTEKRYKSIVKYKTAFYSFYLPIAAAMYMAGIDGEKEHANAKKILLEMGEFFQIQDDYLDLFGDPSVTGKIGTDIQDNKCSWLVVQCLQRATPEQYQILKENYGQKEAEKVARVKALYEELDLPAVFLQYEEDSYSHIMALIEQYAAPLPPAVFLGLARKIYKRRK
Measured parameter: IC50

Look over these answered cases.
O=C(Nc1ccc(C(F)(F)F)nc1)C1=C(O)CC(Cc2ccccc2)NC1=O (stereo not given) | > 50 µM
O=C(Nc1ccc(C2CCCCC2)cc1)C1=C(O)C[C@H](c2ccccc2)NC1=O | > 50 µM
O=C(Nc1ccc(Cl)cc1)C1=C(O)C(c2ccccc2)OC1=O (stereo not given) | > 50 µM
O=C(Nc1ccc(Oc2ccccc2)cc1)C1=C(O)CC(Cc2ccccc2)NC1=O (stereo not given) | > 50 µM

Please turn your attention to the following entry.
query: Given the compound O=C(Nc1ccc(C2CCCCC2)cc1)C1=C(O)CN(Cc2ccccc2)C1=O , what is its reported IC50?
result: 8 µM

###

Recorded IC50 values for a group of compounds are listed next.
- Test target: Isoprenyl transferase (Streptococcus pneumoniae serotype 4 (strain ATCC BAA-334 / TIGR4), UniProt Q97SR4)
- Sequence (Q97SR4 whole entry): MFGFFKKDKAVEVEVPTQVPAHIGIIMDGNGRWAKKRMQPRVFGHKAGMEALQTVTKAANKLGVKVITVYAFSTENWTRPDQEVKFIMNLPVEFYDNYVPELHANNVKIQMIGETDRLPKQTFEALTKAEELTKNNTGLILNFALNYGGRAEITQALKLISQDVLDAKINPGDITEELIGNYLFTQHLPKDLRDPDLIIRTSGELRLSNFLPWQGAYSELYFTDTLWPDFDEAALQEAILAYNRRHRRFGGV
- Assay procedure: Inhibition of Streptococcus pneumoniae UPPS
Use µM as the unit, but write only the number.

Before answering, review these 8 worked examples.
CC(C)CC1CC(O)=C(C(=O)Nc2ccc(C3CCCCC3)cc2)C(=O)N1 (centres undefined) | 0.2
O=C(Nc1cc(Cl)cc(Cl)c1)C1=C(O)C(c2ccccc2)OC1=O (centres undefined) | 2
O=C(Nc1ccc(C2CCCCC2)cc1)C1=C(O)C(CCc2ccccc2)NC1=O (centres undefined) | 0.16
O=C(Nc1ccc(C2CCCCC2)cc1)C1=C(O)CC(C2CCCCC2)NC1=O (centres undefined) | 0.06
O=C(Nc1ccc(F)cc1)C1=C(O)C(CCc2ccccc2)NC1=O (centres undefined) | 2.5
O=C(Nc1ccc(Cl)cc1)C1=C(O)C(c2ccccc2)OC1=O (centres undefined) | 24
O=C(NC1CCCCC1)C1=C(O)C(CCc2ccccc2)NC1=O (centres undefined) | 35
O=C(Nc1ccc(C2CCCCC2)cc1)C1=C(O)C(Cc2ccccc2)NC1=O (centres undefined) | 1.8

Next:
query: Fill blank: measured IC50 of the compound O=C1NCC(O)=C1C(=O)Nc1ccc(C2CCCCC2)cc1 is ____.
result: 58

###

Overview of reported pKa across a group of compounds:
- Assay procedure: Dissociation constant, pKa of the compound
- Assay type: physicochemical
Write the value as a bare number.

COCC1NC(=O)C(C(=O)Nc2ccc(C3CCCCC3)cc2)=C1O (centres undefined) | 3
O=C(Nc1ccc(C2CCCCC2)cc1)C1=C(O)C[C@@H](c2ccccc2)NC1=O | 6.5
O=C(Nc1ccc(C2CCCCC2)cc1)C1=C(O)C[C@H](c2ccccc2)NC1=O | 6.5

// moving on: another record for pKa
query: Please give the measured pKa for this compound: O=C(Nc1ccc(N2CCCCC2)cc1)C1=C(O)CC(Cc2ccccc2)NC1=O (centres undefined)
result: 6.5
